# TEST SUMMARY: Pharmacokinetics in plasma and brain after single intraperitoneal dose (GC/MS)
# Type: in vivo
# ASSAY CONDITIONS: mouse, ip; mice, 300 mg/kg intraperitoneal, plasma
PARAMETER: half-life
Remember to quote the unit after the number.

Tell me half-life reported for CC1=C/C(=C\C(=O)O)CC(C)(C)C1
1 h
